# Test: yeast display, Sf9 membrane polyspecificity reagent, FACS + sequencing; frameworks hold sequencing errors
Observation type: polyreactivity (PSR sort gate)

Past entries and their recorded results:
1. QVQLVESGGGLVQAGGSLRLSCAASGFIFSWYAMGWYRQAPGKERELVARISSSGGNTYYADSVKGRFTISRDNAKNTVYLQMNSLKPEDTAVYYCAAGYRYRYDYWGQGTQVTVSS    high polyreactivity
2. QVQLVESGGGLVQAGGSLRLSCAASGSTFSRYAMGWYRQAPGKERELVAAITRSGGGTHYADSVKGRFTISRDNAKNTVYLQMNSLKPEDTAVYYCNVAGVLYPFVSYDYWGQGTQVTVSS    low polyreactivity
3. QVQLVESGGGLVQAGGSLRLSCAASGFTFYGYAMGWYRQAPGKERELVAAINSAGRTYYADSVKGRFTISRDNAKNTVYLQMNSLKPEDTAVYYCASKYVRGHGYWGQGTQVTVSS    high polyreactivity
4. QVQLVESGGGLVQAGGSLRLSCAASGRTFYIYAMGWYRPAPGKERELVAAITYGGGRTFYADSVKGRFTISRDNAKNTVYLQMNSLKPEDTAVYYCAATVRGKRSTYDYWGQGTQVTVSS    high polyreactivity
5. QVQLVESGGGLVQAGGSLRLSCAASGFTFIYYAMGRYRQAPRKERELVAAISSGGSTYYADSVKGRFTISRDNAKNTVYLQMNSLKPEDTAVYYCAAGYWWPVQYYSRYNYWGQGTQVTVSS    high polyreactivity

--- query ---
Entry QVQLVESGGGLVQAGGSLRLSCAASGFIFTKNAMGWYRQAPGKDRVLVAAITSSGGNTYYADSVKRRFTIARDNAKNTVYLQMNSLKPEDTAVYYCAASRFLRMYWGQGTQVTVSS : reported polyreactivity (PSR sort gate) = ?
high polyreactivity

----------
# Test: yeast display, Sf9 membrane polyspecificity reagent, FACS + sequencing; frameworks hold sequencing errors
Observation type: polyreactivity (PSR sort gate)

1) QVQLVESGGGLVQAGGSLRLSCAASGSIFTGYAMGWYRQAPGKERELVAAITYGSGRTYYADSVKGRFTISRDNAKNTLYLQMNSLKPEDTAVYYCAAKWSPYYYYIGYDYWGQGTQVTVSS    low polyreactivity
2) QVQLVESGGGLVQAGGSLRLSCAASGRISASYAMGWYRQAPGKEREWVAAITGSGGSTYYADSVKGRFTISRDNAQNTVYLQMNSLKPEDTGVYYCAAEPVLSVFFEFDSWGQGTQVTVSS    low polyreactivity
3) QVQLVESGGGLVQAGGSLRLSFADSGYNFPLYAMGWYIQAPGKERELVADINIGGASTYYADSVKGRFTISRDNAKNTFYLQMNSLKPEDTAVYSCAARDCYQRRQRRYDYWGQGTQVTVSS    low polyreactivity

----------
# Test: yeast display, Sf9 membrane polyspecificity reagent, FACS + sequencing; frameworks hold sequencing errors
Observation type: polyreactivity (PSR sort gate)

Past entries and their recorded results:
1) QVQLVETAGGLVQAGGSLRLSSAASRSTFGPYAMGWYSQSPGKERELVAAISRRGTSTYYADSVKGRFTISRDNAKHTVYLQMNSLKPDDTAVYYCNAVTSSFYIRDSDYWGQGNQVTVSS    high polyreactivity
2) LVQLVQSGGGLVQAGGSLRLSCAASGRTFIGYAMGWYRQAPGKERELVAAITSDGGTNYADSVKGRFTISRDNAKNTVNLLMNSLKPEDTAVYDCAARRRVSYHLYGYWGQGTQVTVSS    high polyreactivity
3) QVQLVESGGGLVQAGGSLRLSCAASGRIFDNYVMGWYRQAPGKERELVAAISSGGGTYYADSVKGRFTISRDNAKNTVYLQMNSLKPEDTAVYYCAKRRVYDRSFGRYDYCGQGTQVTVSS    low polyreactivity
4) QVQLVESGGGLVQAGGSLRLSCDASGSTFGANAMGWYRQAPGKEREFVAAISRSGVRTYYADSVKGRFTISRDNAKNTVYLQMNSLKPEDTAVYYCAADGYWWTYTRYDYWGQGTQVTVSS    low polyreactivity

--- query ---
Entry QVQLVESGGGLVQAGGSLRLSCAASGRTFKWYAMGWYRQAPGKERELVAGISRGAGRTYYADSVKWRFTISRDNAKNTFYLEMNSLKPEDTAVYYFAASPVRDGKVIDGRDYWGQGTQVTVSS : reported polyreactivity (PSR sort gate) = ?
high polyreactivity

----------
# Test: yeast display, Sf9 membrane polyspecificity reagent, FACS + sequencing; frameworks hold sequencing errors
Observation type: polyreactivity (PSR sort gate)

Past entries and their recorded results:
1. QVQLVESGGGLVQAGGSLRLSCAASGRIFGYTMGWYRQAPGKERELVAAISKSGGSTYYADSVKGRFTISRDNAMNTVYLQMNSLKPEDTAVYYCNKPQRILYDYWGQGTQVTVSS    high polyreactivity
2. QVQLVESGGGLVQAGGSLRLSCAATGIIYGYVMGWYRQAPGKERELVAVITRSGGSTYYADSVKGRFTISRDNAMNSVYLQMNSLKPEDTAVYYCAAQGIDILYDYWGQGTQVTVSS    low polyreactivity
3. QVQLVESGGGLVQAGGSLRLSCAASGSIFESNAMGWYRQAPGKERELVADITYRGTRTYYADSVKGRFTISRDNAKNTVYLQMNSLKPEDTAVYYCAVWQDHYDWGQGTQVTVSS    low polyreactivity
4. QDQLVESGGGLVQAGGSLRLSCAASGSIFWSNAMGWYRQAPGKERELVASISSSGSTYYADSVKGRFTISRDNAKNTVYLQMNSLKPEDTGVYYCAAGSAYYSQRYFAYGYDSWGQGTQVTVSS    low polyreactivity
5. QVQLVESGGGLVQAGGSLSLSCAATGSTFSLYAMGWYIQAPGKERELVAAISSSGGSTYYADSVKGRFTISRDNAKNTVYLQMNSLKPEDTAVYYCAAYRVGSYDYWGQGTQVTVSS    high polyreactivity
6. QVQLVESGGGLVQAGGSLRLSCAASGRIFSRYTMGWYRQAPGKERELVAAISRRGGSTNYADSVKGRFTISRDNAKNTVYLQMNSLKPEDTAVYYCAAHGPFVRSQSLRSGRFDYWGQGTQVTVSS    high polyreactivity
7. QVQLVESGGGLVQAGGSLRLSCAASGSTLQVNAMGWYRQAPGNERELVATISFSGGSTYYADSVKGRFTISRDNAKYTVYLQMNSLKPEDTAVYYCNADSFVSWYNQFWYQATYDYWGQGTEVTVSS    low polyreactivity
8. QVQLVESVGGLVQAGGSLRLSCAPSGRTFYIYAMGRYRQAPGKERELVAAISISGSTYYADSVKGRFTISRDNAKNTVYLQMNSLKPEDTAVYYCAADYLDSTYGYVYGWDDYLGQGTQVTVSS    low polyreactivity

Entry QVQLVESGGGLVQAGGSLRLSCAASGFIFVNYMGWYRQAPGKERELVAAISRGGSTNYADSVKGRFTISRDNAKNNVFLQMNSLKPEDTAVYYCAAETWYSGYTYDYWGQGTQVTVSS : reported polyreactivity (PSR sort gate) = ?
low polyreactivity

Next entry: QDQLVESGGGLVQAGGSLRLSCAASVSTFILNAMGWYRQAPGKERELVATISSSDTSTYYADSVKGRFTISRDNAKNTVYLQMNSLKPEDTAVYYCNADYYTTSYLQRVYHYGVEYDYWGQGTQVTVSS
low polyreactivity

Next entry: QGQLEESGGGLVQAGGSLRLSCAASGITFNDYTMGWYRQAPGKEMELVAVITKTGSRTYYADSVKGRFTISRDNAKNTVYLQMNSLKPEDTAVYYCNALYYIHYYQGYGYWGQGTQVTVSS
high polyreactivity

Next entry: QVQLVESGGGLVQAGGSLRLSCAASGSTLSVNAMGWYRQAPGKERELVAAIDFDGGDTYYADSVKGRFTISRDNAKNTVYLQMNSLKPEDTAVYYCAADIGGQYDYLADDYWGQGTQVTVSS
low polyreactivity

Next entry: QVQLVESGGGLVQAGGSLRLSCAASGFIFWSNAMGWYRQAPGKERELVAAISWSGGSTYYADSVKGRFTISRDNAKNTVYLQMNSLKQEDTAVYYCAAEFWGWDWDLEYWGQGTQVTVSS
high polyreactivity

Next entry: QVQLVESGGGIVQAGGSLRLSCAASGFTFGAYAMGWSRQAPGKEGELVASISWSGGSTYYADSVKGRFTISRDHAKNTVNLQMNSLKPEDTAVYYCNKDFVYPDDDGLFDYWGQGTQETVSS
low polyreactivity

Next entry: QVQLVESGGGLVQAGGSLRLSCAASGSTFQRYAMGWYRQAPGKERELVAAISDGGSTKYADYVKGRFTISRDNAKNTVYLQMNRLKPEDTAVYYCAANYLSRYDYWGQGTQVTVSS
low polyreactivity

Next entry: QVQLVESGGGLVQAGGSLRLSCAASGRIFAFSAMGWSRQAPGKERELVAAISSGGSTYYADSVKGRFTISRDNAKNTVYLQMNSLKPEDTAVYYCAASGLYYYRYRYYYWGQGTQVTVSS
high polyreactivity

Next entry: QVQLVESGGGLVQAGGSLRLSCAASGRTFRKYAMGWYRQATGKERELVAAISWSGGSTYYANSVKGRFTISGDNAKNTVYLQINSLNPEDTAVYFCAVDCHPEEYDYWGQGTQVTVSS
low polyreactivity

Next entry: QVQLVESGGGLVQAGGSLRLSCAASGRTFTGYAMGWYRQAPGKERELVASISRRGGSTYYADSVKGRFTISRDNAKNTVYLQMNSLKPEDTAVYSCAADSVRHTYSWWYAVDYWGQGTQVTVSS
high polyreactivity

Next entry: QVQLVESGGGLVQAGGSLRLSCAASGSTFSSYGMGWYRQAPGKERELVASITIRGGSTYYADSVKGRFTISRDNAKNTVYLQMNSLKPEDTAVYYCAADVTNRGTWVIYGYYYWGQGTQVTVSS
low polyreactivity

Next entry: QVQLVESGGGLVQAGRSLRLSCAASGSTFKYNAMGWYRQAPGKERELVASISRSGGSTYYADSVKGRFTISRDNAKNTVYLQMNSLKPEDTAGYYCNVRRFVHYEYWGQGSQVTVSS
high polyreactivity

Next entry: QVQLVESGGGLVQAGGSLRLSCAASGSIFYRNAMGWYRQAPGKERELVAAISSDGSTNYADSVKGRFTISRDNAKNTVYLQMNSLKPEDTAVYYCNVPYYLPSYLSGYDYWGQGTQVTVSS
low polyreactivity
